# System: RAW-Dual (murine macrophage reporter line)
# Experiment Notes: IRF reporter (Lucia luciferase) activity fold change vs agonist alone; higher = enhanced IRF activity
# Condition Summary: modulator concentration 10 µM; agonist: 3'3'-cGAMP 10 ug/mL
Readout Name: IRF reporter
Numbers only.

[
  {
    "Smi": "O=[N+]([O-])c1ccccc1S(=O)(=O)NCc1ccc2c(c1)OCO2",
    "Readout Name": "IRF reporter",
    "Value Reported": 0.89
  }
]

Look at each molecule and report its IRF reporter.
1. O=C(CC1(Cc2ccc(I)cc2)C(=O)c2ccccc2C1=O)c1ccccc1
2. COCCCN1C(=O)C(=Cc2ccc(-c3ccc(Cl)cc3Cl)o2)SC1=S
3. NNC(=O)c1ccncc1
4. Cc1[nH]c2ccc(Br)cc2c(=O)c1CN1CCCCC1
5. CN(C)CCC=C1c2ccccc2COc2ccccc21.Cl
6. COc1cc2nccc(Oc3ccc(NC(=O)C4(C(=O)Nc5ccc(F)cc5)CC4)cc3)c2cc1OC.O=C(O)C[C@H](O)C(=O)O

[0.953, 1.02, 0.91, 0.951, 0.576, 0.103]

----------
Give IRF reporter for every item shown.
# System: RAW-Dual (murine macrophage reporter line)
# Experiment Notes: IRF reporter (Lucia luciferase) activity fold change vs agonist alone; higher = enhanced IRF activity
# Condition Summary: modulator concentration 10 µM; agonist: 3'3'-cGAMP 10 ug/mL

[
  {
    "Molecule": "Cc1ccc(Sc2cc(Sc3ccc(C)cc3)c3noc4c3c2C(=O)c2ccccc2-4)cc1",
    "Study Target": "RAW-Dual (murine macrophage reporter line)",
    "IRF reporter": 0.959
  }
]

Go through the list and state IRF reporter for each entry.
1. Cc1cc(N2CCCC2)nc(Nc2ccc(NC(=O)CC(C)C)cc2)n1
2. Cc1cc(C)nc(NS(=O)(=O)c2ccc(NC(=O)C=Cc3cccc4ccccc34)cc2)n1
3. CS(=O)(=O)N(Cc1ccccc1)c1ccc(C(=O)NCCSCc2ccc(Cl)cc2)cc1
4. O=C(Nc1cc(C(F)(F)F)cc(C(F)(F)F)c1)c1cc2ccccc2o1
5. Br.O=S(=O)(c1ccc(-c2csc(Nc3ccc(Br)cc3)n2)cc1)N1CCCCC1

0.947
0.248
1.01
0.953
0.938

// for each molecule below, give its IRF reporter
1. Oc1c(Cl)cc(Cl)cc1Sc1cc(Cl)cc(Cl)c1O
2. Cl.Cl.OCCN1CCN(CC/C=C2/c3ccccc3Sc3ccc(C(F)(F)F)cc32)CC1
3. Nc1ncnc2c1ncn2[C@@H]1O[C@H](COP(=O)(O)O)[C@@H](O)[C@H]1O
4. NC[C@H]1CC[C@H](C(=O)O)CC1
5. CC1CCc2nc(NC(=O)C3CCCN3S(C)(=O)=O)sc2C1 (centres undefined)

[0.564, 0.959, 1.32, 0.993, 0.983]

Could you tell me IRF reporter for each of these molecules? They are listed below.
1. Cc1ccc(Nc2nc(N3CCOCC3)nc(N3CCN(c4ccccc4)CC3)n2)cc1
2. O=C1CN(CCC2=CCCCC2)C2CS(=O)(=O)CC2N1c1ccc(Cl)cc1 (centres undefined)
3. O=C(NCC(O)Cn1ccccc1=O)c1ccc(Cl)s1 (centres undefined)

0.711
0.786
1.02

----------
# Test system: RAW-Dual (murine macrophage reporter line)
# Experiment Notes: IRF reporter (Lucia luciferase) activity fold change vs agonist alone; higher = enhanced IRF activity
# Condition Summary: modulator concentration 10 µM; agonist: LPS 0.1 ug/mL
Record form. Attribute: IRF reporter. Fill in for each entry.
Numbers only.

Recorded results for 2 compounds are shown here.
[
  {
    "Compound": "CC(=O)c1ccc(NC(=O)CSc2ccc(-c3ccc4c(c3)OCO4)nn2)cc1",
    "IRF reporter": 1.02
  },
  {
    "Compound": "Nc1ncnc2c1ncn2[C@@H]1O[C@H](CO)[C@@H](O)[C@@H]1O",
    "IRF reporter": 0.983
  }
]

Would you kindly look at the next entry?
Given Nc1nc(NC2CC2)c2ncn([C@H]3C=C[C@@H](CO)C3)c2n1 [Prestw-1512] , respond with its IRF reporter.
1.01

----------
Can you tell me NF-kB reporter for the items I'm about to list?
# Tested on: RAW-Dual (murine macrophage reporter line)
# Experiment Notes: NF-kB reporter (SEAP) activity fold change vs agonist alone; higher = enhanced NF-kB activity
# Condition Summary: modulator concentration 10 µM; agonist: CpG ODN 1826 0.5 ug/mL
One number for each entry.

Recorded results for 4 molecules are shown here.
[
  {
    "Molecule": "O=S(=O)(Nc1cccc2cccnc12)c1ccccc1",
    "NF-kB reporter": 0.961
  },
  {
    "Molecule": "CC(=O)Nc1cc2nc3ccccc3nc2cc1NC(C)=O",
    "NF-kB reporter": 0.964
  },
  {
    "Molecule": "CC12CCC(=O)C=C1C=CC1C2CCC2(C)C1CCC21CCC(=O)O1 (centres undefined)",
    "NF-kB reporter": 0.781
  },
  {
    "Molecule": "CCOC(=O)N1CCC(=C2c3ccc(Cl)cc3CCc3cccnc32)CC1",
    "NF-kB reporter": 1.07
  }
]

Hello, I would appreciate it if you could give NF-kB reporter for each entry below.
1. CC(C)(C)NCC(O)COc1cccc2c1CC(O)C(O)C2 (centres undefined)
2. COc1cccc(-c2ccc(NC(=O)C3=C(C(=O)O)CCC3)c(F)c2)c1

1: 1.26; 2: 0.954

----------
# Test system: RAW-Dual (murine macrophage reporter line)
# Experiment Notes: IRF reporter (Lucia luciferase) activity fold change vs agonist alone; higher = enhanced IRF activity
# Condition Summary: modulator concentration 10 µM; agonist: 3'3'-cGAMP 10 ug/mL
Readout Name: IRF reporter

Examples from the recorded data:
[
  {
    "Compound": "COc1ccc(CN(CCN(C)C)c2ccccn2)cc1.O=C(O)C=CC(=O)O",
    "IRF reporter": 0.982
  },
  {
    "Compound": "O=C(CCN1C(=O)c2cccc([N+](=O)[O-])c2C1=O)Nc1ccc(Cl)cc1",
    "IRF reporter": 0.848
  }
]

For each listed entry, give its IRF reporter.
1. CCN(CC)CCNc1ccc(CO)c2sc3ccccc3c(=O)c12 [Prestw-355]
2. Nc1nc(Cl)nc2c1ncn2[C@H]1C[C@H](O)[C@@H](CO)O1
3. CN(C)c1ccc(C2N(C)c3ccccc3N2C)cc1
4. CCN(CC)CCOC(=O)C(c1ccccc1)c1ccccc1.Cl
5. COC(=O)C1C(O)CCC2CN3CCc4c([nH]c5ccccc45)C3CC21.Cl (centres undefined)

[0.408, 0.723, 0.939, 1.58, 0.92]

Quick one: give me IRF reporter for each item below, same order please.
1. CCOC(=O)c1ccc(N2C(=O)CC(N3CCN(c4ccc([N+](=O)[O-])cc4)CC3)C2=O)cc1 (centres undefined)
2. CC1=C(C(=O)Nc2cccc(C)n2)C(c2ccsc2)C2=C(CC(C)(C)CC2=O)N1 (centres undefined)

1: 1.06; 2: 0.954

----------
# Tested on: RAW-Dual (murine macrophage reporter line)
# Experiment Notes: IRF reporter (Lucia luciferase) activity fold change vs agonist alone; higher = enhanced IRF activity
# Condition Summary: modulator concentration 10 µM; agonist: 3'3'-cGAMP 10 ug/mL
Provide the reported IRF reporter of each item.
Numbers only.

Some solved entries appear below for comparison.
[
  {
    "Molecule": "COc1ccc(C(NC(=O)c2ccccc2F)c2ccc(OC)cc2)cc1",
    "Value Reported": 1
  },
  {
    "Molecule": "CC(C)(C)C1CCc2c(sc(NC(=O)c3cccs3)c2C(=O)N2CCCC2)C1 (stereo unspecified)",
    "Value Reported": 0.984
  }
]

Give IRF reporter for all molecules that follow.
1. CCN1C(C)=C(C(=O)OC)C(c2ccc([N+](=O)[O-])cc2)C(C(=O)OC)=C1C
2. CCN(CC)CCN1C(=O)C(O)=C(C(=O)c2ccc(C)cc2)C1c1ccccc1 (stereo unspecified)
3. CN(Cc1cnc2nc(N)nc(N)c2n1)c1ccc(C(=O)NC(CCC(=O)O)C(=O)O)cc1 (stereo unspecified)
4. CC(C)C1=NN2C(=N)C(=Cc3ccc(-c4ccccc4[N+](=O)[O-])o3)C(=O)N=C2S1

1. 0.981
2. 0.827
3. 0.614
4. 0.89

----------
# System: RAW-Dual (murine macrophage reporter line)
# Experiment Notes: IRF reporter (Lucia luciferase) activity fold change vs agonist alone; higher = enhanced IRF activity
# Condition Summary: modulator concentration 10 µM; agonist: MPLA […]
Readout Name: IRF reporter
Answers are plain numbers.

Some solved entries appear below for comparison.
[
  {
    "Smi": "COc1ccc(OC)c(-c2csc(NC(=O)C3CC3)n2)c1",
    "IRF reporter": 1.13
  },
  {
    "Smi": "O=c1[nH]cnc2scc(-c3ccc(Br)cc3)c12",
    "IRF reporter": 1.29
  },
  {
    "Smi": "COc1ccc(-c2[nH]c(-c3ccccc3)nc2SCC(=O)NC2CCCC2)cc1",
    "IRF reporter": 1.11
  }
]

Below is a list of molecules. For each, state its recorded IRF reporter.
1. Cc1cc(CCNC(=O)c2cc3ccccc3s2)nn1C
2. CC[C@@H]1C(=O)N(C)c2cnc(Nc3ccc(C(=O)N[C@H]4CC[C@H](N5CCN(CC6CC6)CC5)CC4)cc3OC)nc2N1C(C)C

0.993
0.138
